# System: Proteus morganii IFO 3848
# experimental_protocol: Antibacterial activity, agar-dilution MIC, organism No. 18
# Type: cell-based
# conditions_used: Morganella morganii, IFO3848; Organism No. 18, bouillon-agar; read-out: Minimum Inhibitory Concentration
Would you kindly list MIC for each of these molecules?

[
  {
    "molecule": "[C-]#[N+]C12CC3(/C=C/C(=O)NC4C(=O)N5C(C(=O)OCC(=O)c6ccc(Br)cc6)=C(C)CSC45)OC3C1O2 (stereo not drawn) [compound 34]",
    "result": "> 100 µg/mL"
  },
  {
    "molecule": "[C-]#[N+]C12CC3(/C=C/C(=O)Nc4cccc(C(F)(F)F)c4)OC3C1O2 (stereo not drawn) [compound 47]",
    "result": "< 0.05 µg/mL"
  }
]

Next:
Problem: Record request: MIC value, item [C-]#[N+]C12CC3(/C=C/C(=O)NC4C(=O)N5C4SC(C)(C)C5C(=O)OCC(=O)c4ccc(Br)cc4)OC3C1O2 (stereo not drawn) [Compound No. 33]
Result: > 200 µg/mL

---

# System: Candida albicans IAM 4905
# experimental_protocol: Antifungal activity, agar-dilution MIC, organism No. 29
# Format: cell-based
# conditions_used: Candida albicans, IAM4905; Organism No. 29, bouillon-agar; read-out: Minimum Inhibitory Concentration
Would you kindly list MIC for each of these compounds?

Examples with answers:
[
  {
    "compound": "[C-]#[N+]C12CC3(/C=C/C(=O)N[C@@H](C(=O)OCc4ccccc4)C(C)C)OC3C1O2 (stereo partly shown)",
    "result": "> 100 µg/mL"
  },
  {
    "compound": "[C-]#[N+]C12CC3(/C=C/C(=O)N[C@@H](CC(=O)OCc4ccccc4)C(=O)OCc4ccccc4)OC3C1O2 (stereo partly shown)",
    "result": "> 100 µg/mL"
  },
  {
    "compound": "[C-]#[N+]C12CC3(/C=C/C(=O)N[C@@H](Cc4ccccc4)C(=O)OCc4ccccc4)OC3C1O2 (stereo partly shown)",
    "result": "> 100 µg/mL"
  }
]

Problem: Record request: MIC value, item [C-]#[N+]C12CC3(/C=C/C(=O)ON4C(=O)CCC4=O)OC3C1O2 (stereo not shown)
Result: > 100 µg/mL

---

# Test system: Proteus morganii IFO 3848
# experimental_protocol: Antibacterial activity, agar-dilution MIC, organism No. 18
# Assay type: cell-based
# conditions_used: Morganella morganii, IFO3848; Organism No. 18, bouillon-agar; read-out: Minimum Inhibitory Concentration
property_measured: MIC

Examples with answers:
[
  {
    "molecule": "[C-]#[N+]C12CC3(/C=C/C(=O)N[C@@H](CCC(=O)OCc4ccccc4)C(=O)OCc4ccccc4)OC3C1O2 (some centres unmarked) [Compound No. 28]",
    "target_entity": "Proteus morganii IFO 3848",
    "property_measured": "MIC",
    "result": "> 200 µg/mL"
  },
  {
    "molecule": "[C-]#[N+]C12CC3(/C=C/C(=O)OCc4cc([N+](=O)[O-])ccc4O)OC3C1O2 (centres unmarked) [Compound No. 17]",
    "target_entity": "Proteus morganii IFO 3848",
    "property_measured": "MIC",
    "result": "> 200 µg/mL"
  },
  {
    "molecule": "[C-]#[N+]C12CC3(/C=C/C(=O)N(C(=O)NC4CCCCC4)C4CCCCC4)OC3C1O2 (centres unmarked) [Compound No. 25]",
    "target_entity": "Proteus morganii IFO 3848",
    "property_measured": "MIC",
    "result": "> 100 µg/mL"
  }
]

Please go through the list and note MIC for each molecule.
1. [C-]#[N+]C12CC3(/C=C/C(=O)N[C@@H](C(=O)OCc4ccccc4)C(C)C)OC3C1O2 (some centres unmarked) [compound 30]
2. [C-]#[N+]C12CC3(/C=C/C(=O)N[C@@H](Cc4ccccc4)C(=O)OCc4ccccc4)OC3C1O2 (some centres unmarked) [compound 31]

Result:
> 200 µg/mL
> 200 µg/mL

Data origin, for the record: patent US4684664A
